system: A/California/07/2009 (H1N1); experiment: Antiviral activity (drug efficacy evaluation by concentration) against A/California/07/2009 (H1N1); assay type: cell-based, A type influenza virus; details: Influenza A virus, H1N1; read-out: EC50
reported endpoint: pEC50
Entry type: numeric. Quantity: pEC50, the -log10 of concentration in molar units.

Examples with their reported pEC50 follow.
{"columns": ["compound", "pEC50"],
 "data": [
  ["Fc1cccc(/C=C/c2nnc(Cc3cccc(Br)c3)o2)c1Cl [Compound 194]", 5.88],
  ["Cc1ccc(Cc2nnc(/C=C/c3ccc(F)cc3Cl)o2)cc1Br [Compound 181]", 4.96],
  ["CC(C)c1ccccc1/C=C/c1nnc(Nc2ccc(Br)cc2)o1 [Compound 117]", 4.50],
  ["Oc1cccc(Cc2nnc(/C=C/c3ccc(F)cc3Cl)o2)c1 [Compound 201]", 5.49],
  ["CC(C)c1ccccc1CCc1nnc(Cc2ccc(OC(F)(F)F)cc2)o1 [Compound 93]", 4.66]
]}

# input Give pEC50 (A/California/07/2009 (H1N1)) of the following compound: Cc1ccc(F)c(Cc2nnc(/C=C/c3ccccc3C(C)C)o2)c1 [Compound 173]
# output 5.75
